# Tested on: DLD-1 colon
# MEASUREMENT PROTOCOL: NCI tumour cell line growth inhibition, 48 h
TGI values by entry

MOLECULE: c1c(N2CCOCC2)ssc1=[N+]1CCOCC1
TGI: > 100 µM
//
MOLECULE: Cc1nc2c(n1CC(C)(C)C)C(=O)c1ccccc1C2=O
TGI: > 100 µM
//
MOLECULE: COC(=O)c1ccc2c(c1)C(NC(C)=O)CCc1cc(OC)c(OC)c(OC)c1-2 (stereo not given)
TGI: > 100 µM
//
MOLECULE: COc1ccc(C(C2=C(C)C(=O)c3ccccc3C2=O)c2ccc(C(C)C)cc(=O)c2O)cc1 (stereo not given)
TGI: 18.4 µM
//
MOLECULE: O=C1[C@@H](c2ccc(Cl)cc2)[C@H]2CC=C[C@H]2N1O
TGI: > 100 µM

Input line: Endpoint output: TGI of Cc1cc(Cl)ccc1NC(=O)C(=O)Cc1nc2ccc(C(=O)c3ccccc3)cc2[nH]c1=O . Value?
Output line: > 100 µM

Input line: # lookup: TGI of COc1cc2nncc(Sc3cnnc4ccccc34)c2cc1OC
Output line: 49.6 µM

Input line: If you can, please state the reported TGI value of O=C(C(=O)c1ccc(Cc2ccc(C(=O)C(=O)c3ccccc3)cc2)cc1)c1ccccc1 .
Output line: > 100 µM

Input line: What does the record list as TGI for O=C1c2ccccc2N2OC3(N4CCCC4)CCCC3C12c1ccccc1 (stereo not given) ?
Output line: > 100 µM

Input line: Any idea what TGI was measured for COc1ccc(OC)c(NC(=O)C(=O)C(C(=O)c2ccccc2F)C2OC(=O)c3ccccc32)c1 (stereo not given) ?
Output line: > 100 µM

Reference source: PubChem BioAssay (NCI)
